procedure-text: Inhibition of Aspergillus parasiticus NIAH-26 5'-hydroxyaverantin dehydrogenase
readout-type: IC50 (µM)

| compound | observed-measurement |
| --- | --- |
| CO[C@H]1[C@@H](O)[C@@]2(C)c3ccc4c(c3-c3c2c(coc3=O)[C@@H]1O)CCC4=O (relative stereo) | 250 |
